system_tested: DNA topoisomerase 1 (Homo sapiens) (UniProt P11387)
Sequence (P11387 whole entry): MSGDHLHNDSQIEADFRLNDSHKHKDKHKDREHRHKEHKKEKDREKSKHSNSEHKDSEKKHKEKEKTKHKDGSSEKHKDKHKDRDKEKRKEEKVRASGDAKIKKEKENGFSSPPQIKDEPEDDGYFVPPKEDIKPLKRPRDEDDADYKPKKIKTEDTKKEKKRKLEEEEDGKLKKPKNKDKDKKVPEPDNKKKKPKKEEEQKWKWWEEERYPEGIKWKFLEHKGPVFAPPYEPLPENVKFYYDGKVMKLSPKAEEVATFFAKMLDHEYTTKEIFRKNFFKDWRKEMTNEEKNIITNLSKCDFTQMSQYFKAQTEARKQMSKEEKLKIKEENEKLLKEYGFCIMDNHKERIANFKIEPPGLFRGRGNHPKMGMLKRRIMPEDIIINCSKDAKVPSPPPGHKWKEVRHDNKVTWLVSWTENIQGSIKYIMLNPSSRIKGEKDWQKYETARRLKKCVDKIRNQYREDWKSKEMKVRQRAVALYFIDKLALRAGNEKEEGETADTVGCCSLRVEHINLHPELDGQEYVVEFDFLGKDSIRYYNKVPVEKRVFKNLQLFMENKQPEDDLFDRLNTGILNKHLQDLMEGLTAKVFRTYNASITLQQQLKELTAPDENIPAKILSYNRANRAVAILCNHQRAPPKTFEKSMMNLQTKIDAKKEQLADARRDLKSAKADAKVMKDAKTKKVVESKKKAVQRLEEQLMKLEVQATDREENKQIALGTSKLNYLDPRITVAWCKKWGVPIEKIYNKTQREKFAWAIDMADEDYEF
assay_info: Inhibition of human topoisomerase 1 at 20 uM
// label = True if inhibition is not less than 2%, otherwise False

Query: State whether the measured inhibition reaches 2%, counting equality as reaching it, for O=c1c2cccnc2oc2cc(OCC3CS3)cc(O)c12 (configuration not stated)
Response: True

Query: State whether the measured inhibition reaches 2%, counting equality as reaching it, for O=c1c2ccccc2[nH]c2cc(OCC3CS3)cc(OCC3CS3)c12 (configuration not stated)
Response: False

Query: State whether the measured inhibition reaches 2%, counting equality as reaching it, for O=c1c2ccccc2[nH]c2cc(OCC3CS3)cc(O)c12 (configuration not stated)
Response: False

Query: State whether the measured inhibition reaches 2%, counting equality as reaching it, for O=c1c2ccccc2[nH]c2cc(OCC3CO3)cc(O)c12 (configuration not stated)
Response: True

Query: State whether the measured inhibition reaches 2%, counting equality as reaching it, for O=c1c2cccnc2oc2cc(OCC3CS3)cc(OCC3CS3)c12 (configuration not stated)
Response: True

Query: State whether the measured inhibition reaches 2%, counting equality as reaching it, for O=c1c2ccccc2[nH]c2cc(OCC3CO3)cc(OCC3CO3)c12 (configuration not stated)
Response: True

Query: State whether the measured inhibition reaches 2%, counting equality as reaching it, for O=c1c2cccnc2oc2cc(OCC3CO3)cc(O)c12 (configuration not stated)
Response: False
